# Species: Rattus norvegicus
# testProtocol: Compound was tested for area under curve in rat
# Format: ADME, organism-based
# Set-up: concentration or dose not given beside the values
# appliedConditions: in vivo
Listed compounds paired with reported AUC
Use ng·h/mL as the unit, but write only the number.

Example results:
CNC(=O)[C@@H](NC(=O)[C@H](CC(C)C)[C@@H](C(=O)NO)C(C)C)C(C)(C)C | 895
CC(C)CC(C(=O)N[C@H](C(=O)Nc1ccccn1)C(C)(C)C)C(C(=O)NO)C1CCCC1 (single isomer, unassigned; 12j) | 899
CNC(=O)[C@@H](NC(=O)C(CC(C)C)C(C(=O)NO)C1CCCC1)C(C)(C)C (single isomer, unassigned) | 2090

-- ask Using the record for CNC(=O)[C@@H](NC(=O)C(CC(C)C)C(C(=O)NO)C1CCCCC1)C(C)(C)C (single isomer, unassigned) , report its AUC.
-- reply 155

-- ask Using the record for CNC(=O)[C@@H](NC(=O)C(CC(C)C)C(C(=O)NO)C1CC1)C(C)(C)C (single isomer, unassigned) , report its AUC.
-- reply 1020

---

# experimentalSystem: UniProt P03956
# Sequence (P03956 whole entry): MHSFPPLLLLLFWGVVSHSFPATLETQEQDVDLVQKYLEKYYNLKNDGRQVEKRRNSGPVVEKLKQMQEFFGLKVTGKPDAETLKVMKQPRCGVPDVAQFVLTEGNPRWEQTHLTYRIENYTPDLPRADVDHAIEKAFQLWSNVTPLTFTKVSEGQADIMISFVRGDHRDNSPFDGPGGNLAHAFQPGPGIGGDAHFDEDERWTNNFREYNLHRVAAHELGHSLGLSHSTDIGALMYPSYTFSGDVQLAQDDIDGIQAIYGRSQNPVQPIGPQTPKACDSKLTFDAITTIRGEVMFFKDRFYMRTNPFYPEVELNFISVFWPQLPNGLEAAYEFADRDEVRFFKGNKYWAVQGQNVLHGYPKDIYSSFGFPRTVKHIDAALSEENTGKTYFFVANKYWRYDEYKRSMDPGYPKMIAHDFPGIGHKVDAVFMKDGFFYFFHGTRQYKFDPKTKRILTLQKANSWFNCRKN
# testProtocol: Inhibition of matrix metalloprotease-1 (HFC)
measurementType: Activity (nM)
Use nM as the unit, but write only the number.

Example results:
CC(C)CC(C(=O)N[C@H](C(=O)Nc1ccccn1)C(C)(C)C)C(C(=O)NO)C1CCCCC1 (single isomer, unassigned) | 4
CNC(=O)[C@@H](NC(=O)C(CC(C)C)C(C(=O)NO)C1CCCC1)C(C)(C)C (single isomer, unassigned) | 4

Field: next compound
-- ask Using the record for CC(C)CC(C(=O)N[C@H](C(=O)Nc1ccccn1)C(C)(C)C)C(C(=O)NO)C1CCCC1 (single isomer, unassigned; 12j) , report its Activity.
-- reply 3

---

# testProtocol: Maximum concentration value was evaluated for high sustained blood levels in rat after 2 hr of administration
# Assay type: ADME, organism-based
measurementType: Cmax (ng/mL)
Use ng/mL as the unit, but write only the number.

CNC(=O)[C@@H](NC(=O)C(CC(C)C)C(C(=O)NO)C1CCCCC1)C(C)(C)C (single isomer, unassigned) | 9.75

Field: next molecule
-- ask Using the record for CC(C)CC(C(=O)N[C@H](C(=O)Nc1ccccn1)C(C)(C)C)C(C(=O)NO)C1CCCC1 (single isomer, unassigned; 12j) , report its Cmax.
-- reply 70.7

---

Listed molecules paired with reported Activity
# experimentalSystem: 72 kDa type IV collagenase (Homo sapiens) (UniProt P08253)
# Sequence (P08253 110-660 limits assumed): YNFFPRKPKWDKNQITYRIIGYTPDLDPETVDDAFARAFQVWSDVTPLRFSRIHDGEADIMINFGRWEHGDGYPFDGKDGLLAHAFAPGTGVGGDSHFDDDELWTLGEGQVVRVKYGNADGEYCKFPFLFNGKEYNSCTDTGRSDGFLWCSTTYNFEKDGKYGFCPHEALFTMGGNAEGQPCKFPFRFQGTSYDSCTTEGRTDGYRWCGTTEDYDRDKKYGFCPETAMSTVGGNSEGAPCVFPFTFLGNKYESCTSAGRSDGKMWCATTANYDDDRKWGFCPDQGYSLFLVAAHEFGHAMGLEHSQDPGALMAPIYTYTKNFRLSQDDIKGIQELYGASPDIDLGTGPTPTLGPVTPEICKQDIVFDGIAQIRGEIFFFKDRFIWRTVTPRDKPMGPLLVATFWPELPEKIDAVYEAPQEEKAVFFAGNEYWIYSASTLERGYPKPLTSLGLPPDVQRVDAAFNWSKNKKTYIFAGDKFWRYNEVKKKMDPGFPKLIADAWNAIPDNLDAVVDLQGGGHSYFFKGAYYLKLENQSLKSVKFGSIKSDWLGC
# testProtocol: Inhibition of matrix metalloprotease-2 (Gel.A)
Use nM as the unit, but write only the number.

CNC(=O)[C@@H](NC(=O)C(CC(C)C)C(C(=O)NO)C1CCCCC1)C(C)(C)C (single isomer, unassigned) | 10
CNC(=O)[C@@H](NC(=O)[C@H](CC(C)C)[C@@H](C(=O)NO)C1CCSC1)C(C)(C)C (stereo not given in full) | 5
CC(C)CC(C(=O)N[C@H](C(=O)Nc1ccccn1)C(C)(C)C)C(C(=O)NO)C1CCCC1 (single isomer, unassigned; 12j) | 30

-- ask Using the record for CNC(=O)[C@@H](NC(=O)C(CC(C)C)C(C(=O)NO)C1CCC1)C(C)(C)C (single isomer, unassigned) , report its Activity.
-- reply 2

-- ask Using the record for CC(C)CC(C(=O)N[C@H](C(=O)Nc1ccccn1)C(C)(C)C)C(C(=O)NO)C1CCCC1 (single isomer, unassigned; 12m) , report its Activity.
-- reply 100

-- ask Using the record for CC(C)C[C@@H](C(=O)N[C@H](C(=O)Nc1ccccn1)C(C)(C)C)[C@@H](C(=O)NO)C1CCC(C)CC1 (stereo not given in full) , report its Activity.
-- reply 40

-- ask Using the record for CNC(=O)[C@@H](NC(=O)[C@H](CC(C)C)[C@@H](C(=O)NO)C1CCC(C)CC1)C(C)(C)C (stereo not given in full) , report its Activity.
-- reply 9

-- ask Using the record for CNC(=O)[C@@H](NC(=O)C(CC(C)C)C(C(=O)NO)C1CCC(C(C)(C)C)CC1)C(C)(C)C (single isomer, unassigned) , report its Activity.
-- reply 30

-- ask Using the record for CC(C)CC(C(=O)N[C@H](C(=O)Nc1ccccn1)C(C)(C)C)C(C(=O)NO)C1CCCCC1 (single isomer, unassigned) , report its Activity.
-- reply 10

-- ask Using the record for CNC(=O)[C@@H](NC(=O)C(CC(C)C)C(C(=O)NO)C1CCCC1)C(C)(C)C (single isomer, unassigned) , report its Activity.
-- reply 3
